Experimental Target: Human fibrinogen receptor IIb/IIIa (Homo sapiens, UniProt P05106+P08514)
Construct: Human fibrinogen receptor ([…]) was purified from outdated platelets
Sequence (P08514 32-887 limits assumed): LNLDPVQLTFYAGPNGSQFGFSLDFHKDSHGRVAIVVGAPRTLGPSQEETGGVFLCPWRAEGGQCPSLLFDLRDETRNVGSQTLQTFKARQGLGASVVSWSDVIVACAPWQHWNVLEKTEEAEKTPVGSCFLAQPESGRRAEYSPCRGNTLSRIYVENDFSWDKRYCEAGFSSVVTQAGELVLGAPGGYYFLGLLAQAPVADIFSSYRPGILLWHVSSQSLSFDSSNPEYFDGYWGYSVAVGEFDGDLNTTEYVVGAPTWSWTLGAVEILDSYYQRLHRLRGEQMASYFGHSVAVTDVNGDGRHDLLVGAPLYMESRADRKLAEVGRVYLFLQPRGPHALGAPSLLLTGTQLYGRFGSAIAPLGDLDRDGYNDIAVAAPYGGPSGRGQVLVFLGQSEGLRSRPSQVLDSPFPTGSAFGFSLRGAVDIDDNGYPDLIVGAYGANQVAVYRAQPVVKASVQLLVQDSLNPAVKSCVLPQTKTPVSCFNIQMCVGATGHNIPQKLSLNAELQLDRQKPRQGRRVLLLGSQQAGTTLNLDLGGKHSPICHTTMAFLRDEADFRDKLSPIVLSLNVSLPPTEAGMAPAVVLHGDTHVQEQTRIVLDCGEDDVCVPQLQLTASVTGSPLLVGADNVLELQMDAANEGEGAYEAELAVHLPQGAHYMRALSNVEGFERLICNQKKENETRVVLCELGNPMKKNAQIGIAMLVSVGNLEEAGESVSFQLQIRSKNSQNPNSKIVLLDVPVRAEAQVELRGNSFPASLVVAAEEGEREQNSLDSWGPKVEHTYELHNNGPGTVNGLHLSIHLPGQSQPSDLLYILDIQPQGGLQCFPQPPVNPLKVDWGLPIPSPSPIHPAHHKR
Sequence (P08514 891-1039 limits assumed): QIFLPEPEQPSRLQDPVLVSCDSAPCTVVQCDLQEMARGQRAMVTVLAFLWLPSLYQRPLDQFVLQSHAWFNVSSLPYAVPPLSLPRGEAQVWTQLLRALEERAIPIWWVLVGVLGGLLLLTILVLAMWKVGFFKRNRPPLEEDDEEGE
Sequence (P05106 27-788): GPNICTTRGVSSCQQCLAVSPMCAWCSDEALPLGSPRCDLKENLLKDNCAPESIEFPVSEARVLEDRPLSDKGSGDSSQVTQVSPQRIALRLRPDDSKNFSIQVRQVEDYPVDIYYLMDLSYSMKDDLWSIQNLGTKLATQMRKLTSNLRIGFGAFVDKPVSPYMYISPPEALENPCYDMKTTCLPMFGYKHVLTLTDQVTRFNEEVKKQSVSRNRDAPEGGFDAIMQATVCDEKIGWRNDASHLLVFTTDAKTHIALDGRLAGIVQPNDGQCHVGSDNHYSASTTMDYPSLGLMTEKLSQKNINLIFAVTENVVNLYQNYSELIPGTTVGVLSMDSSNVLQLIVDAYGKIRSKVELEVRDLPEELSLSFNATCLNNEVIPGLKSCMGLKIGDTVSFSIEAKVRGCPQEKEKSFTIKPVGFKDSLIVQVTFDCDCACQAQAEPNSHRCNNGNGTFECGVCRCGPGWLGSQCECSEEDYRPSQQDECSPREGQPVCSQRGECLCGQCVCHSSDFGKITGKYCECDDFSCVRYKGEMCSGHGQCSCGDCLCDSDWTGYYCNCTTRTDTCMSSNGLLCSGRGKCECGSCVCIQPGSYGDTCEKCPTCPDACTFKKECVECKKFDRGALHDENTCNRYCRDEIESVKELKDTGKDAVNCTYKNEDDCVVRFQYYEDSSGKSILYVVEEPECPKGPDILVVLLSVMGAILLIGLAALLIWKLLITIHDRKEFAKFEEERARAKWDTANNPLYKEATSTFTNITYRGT
Assay Info: Purified IIb/IIIa receptor assay: solid phase receptor assay, competition with biotinylated vitronectin
Condition Description: 1 nM biotinylated vitronectin
Where a name gives a salt, the structure may show the parent alone.
I'd appreciate it if you could supply IC50 values for the items below.
Write it as a number; the unit nM goes unstated.

Challenge: Entry COc1ncc(C(=O)NCC(=O)N[C@@H](CC(=O)O)c2cc(Cl)cc(Cl)c2O)cc1NC1=NCC(O)CN1 (some centres unmarked) [Example 27] , system Human fibrinogen receptor IIb/IIIa (Homo sapiens, UniProt P05106+P08514): what IC50 was measured?
Response given: 482

Challenge: Entry O=C(O)CC(NC(=O)CNC(=O)c1cc(NC2=NCCN2)[nH]n1)c1cc(Cl)cc(Cl)c1O (centres unmarked) [Example 25, (trifluoroacetate) salt] , system Human fibrinogen receptor IIb/IIIa (Homo sapiens, UniProt P05106+P08514): what IC50 was measured?
Response given: 3910

Challenge: Entry O=C(O)C[C@H](NC(=O)CNC(=O)c1c[nH]c(=O)c(NC2=NCC(O)CN2)c1)c1cc(Br)cc(Br)c1 (some centres unmarked) [Example 35] , system Human fibrinogen receptor IIb/IIIa (Homo sapiens, UniProt P05106+P08514): what IC50 was measured?
Response given: 340

Challenge: Entry Cn1cc(C(=O)NCC(=O)NC(CC(=O)O)c2cc(Cl)cc(Cl)c2O)cc(NC2=NCCN2)c1=O (centres unmarked) [Example 18, (trifluoroacetate) salt] , system Human fibrinogen receptor IIb/IIIa (Homo sapiens, UniProt P05106+P08514): what IC50 was measured?
Response given: 798

Challenge: Entry Cc1sc(C(=O)NCC(=O)N[C@@H](CC(=O)O)c2cc(Cl)cc(Cl)c2O)cc1NC1=NCCN1 [Example 15, trifluoroacetate salt] , system Human fibrinogen receptor IIb/IIIa (Homo sapiens, UniProt P05106+P08514): what IC50 was measured?
Response given: 1040

Challenge: Entry O=C(O)CC(NC(=O)CNC(=O)c1c[nH]c(=O)c(NC2=NCCN2)c1)c1cc(Cl)cc(Cl)c1O (centres unmarked) [Example 20, (trifluoroacetate) salt] , system Human fibrinogen receptor IIb/IIIa (Homo sapiens, UniProt P05106+P08514): what IC50 was measured?
Response given: 2020

Challenge: Entry O=C(O)C[C@H](NC(=O)CNC(=O)c1cc(NC2=NCC(O)CN2)[nH]c(=O)c1)c1cc(Cl)cc(Br)c1O (some centres unmarked) [Example 43] , system Human fibrinogen receptor IIb/IIIa (Homo sapiens, UniProt P05106+P08514): what IC50 was measured?
Response given: 7530

Challenge: Entry N=C(N)Nc1cncc(C(=O)NCC(=O)NC(CC(=O)O)c2cc(Cl)cc(Br)c2O)c1 (centres unmarked) [Example 1] , system Human fibrinogen receptor IIb/IIIa (Homo sapiens, UniProt P05106+P08514): what IC50 was measured?
Response given: 313

Challenge: Entry COCCOCn1cc(C(=O)NCC(=O)NC(CC(=O)O)c2cc(Br)cc(Br)c2O)cc(NC2=NCC(O)CN2)c1=O (centres unmarked) [Example 28] , system Human fibrinogen receptor IIb/IIIa (Homo sapiens, UniProt P05106+P08514): what IC50 was measured?
Response given: 984

Challenge: Entry COc1ncc(C(=O)NCC(=O)NC(CC(=O)O)c2cc(Cl)cc(Cl)c2O)cc1NC1=NCCN1 (centres unmarked) [Example 17, bis(trifluoroacetate) salt] , system Human fibrinogen receptor IIb/IIIa (Homo sapiens, UniProt P05106+P08514): what IC50 was measured?
Response given: 724

Challenge: Entry O=C(O)C[C@H](NC(=O)CNC(=O)c1cncc(N=C2NCC(O)CN2)c1)c1cc(Br)cc(Br)c1O (some centres unmarked) [Example 11] , system Human fibrinogen receptor IIb/IIIa (Homo sapiens, UniProt P05106+P08514): what IC50 was measured?
Response given: 462

Challenge: Entry O=C(O)C[C@H](NC(=O)CNC(=O)c1cc(NC2=NCC(O)CN2)[nH]c(=O)c1)c1cc(Cl)cc(Cl)c1O (some centres unmarked) [Example 42] , system Human fibrinogen receptor IIb/IIIa (Homo sapiens, UniProt P05106+P08514): what IC50 was measured?
Response given: 5950

Challenge: Entry O=C(O)C[C@H](NC(=O)CNC(=O)c1cscc1CNC1=NCC(O)CN1)c1cc(Cl)cc(Cl)c1O (some centres unmarked) [Example 39] , system Human fibrinogen receptor IIb/IIIa (Homo sapiens, UniProt P05106+P08514): what IC50 was measured?
Response given: 2460

Challenge: Entry O=C(O)CC(NC(=O)CNC(=O)c1cncc(NC2=NCCN2)c1)c1cc(Cl)cc(I)c1O (centres unmarked) [Example 5] , system Human fibrinogen receptor IIb/IIIa (Homo sapiens, UniProt P05106+P08514): what IC50 was measured?
Response given: 884

====

Experimental Target: Human fibrinogen receptor IIb/IIIa (Homo sapiens, UniProt P05106+P08514)
Construct: Human fibrinogen receptor ([…]) was purified from outdated platelets
Assay Info: Purified IIb/IIIa receptor assay: solid phase receptor assay, competition with biotinylated vitronectin
Condition Description: 1 nM biotinylated vitronectin
pIC50: −log10 of the molar value. Where a name gives a salt, the structure may show the parent alone.
Is pIC50 at least 6? Then T. If not, F.

Challenge: Hello, I need to know if O=C(O)C[C@H](NC(=O)CNC(=O)c1cncc(N=C2NCC(O)CN2)c1)c1cc(Cl)cc(Cl)c1O (some centres unmarked) has measured pIC50 not below 6. Thanks!
Response given: T

Challenge: Hello, I need to know if O=C(O)CC(NC(=O)CNC(=O)c1cc(N=C2NCCN2)c[nH]c1=O)c1cc(Cl)cc(Cl)c1O (centres unmarked) [Example 23, (trifluoroacetate) salt] has measured pIC50 not below 6. Thanks!
Response given: F

Challenge: Hello, I need to know if O=C(O)C[C@H](NC(=O)CNC(=O)c1c[nH]c(=O)c(NC2=NCC(O)CN2)c1)c1cc(Cl)cc(Cl)c1O (some centres unmarked) [Example 21, trifluoroacetate salt] has measured pIC50 not below 6. Thanks!
Response given: T

Challenge: Hello, I need to know if O=C(O)C[C@H](NC(=O)CNC(=O)c1csc(NC2=NCC(O)CN2)c1)c1cc(Cl)cc(Cl)c1O (some centres unmarked) has measured pIC50 not below 6. Thanks!
Response given: T

Challenge: Hello, I need to know if COc1cc(NC2=NCC(O)CN2)nc(C(=O)NCC(=O)N[C@@H](CC(=O)O)c2cc(Cl)cc(Br)c2O)c1 (some centres unmarked) has measured pIC50 not below 6. Thanks!
Response given: T

Challenge: Hello, I need to know if "O=C(O)C[C@@H](NC(=O)CNC(=O)c1c[nH]c(=O)c(NC2=NCCN2)c1)c1cc(Cl)cc(Cl)c1O" has measured pIC50 not below 6. Thanks!
Response given: F

Challenge: Hello, I need to know if O=C(O)CC(NC(=O)CNC(=O)c1cncc(NC2=NCCN2)c1)c1cc(Cl)cc(Br)c1O (centres unmarked) has measured pIC50 not below 6. Thanks!
Response given: T

Challenge: Hello, I need to know if Cn1cc(NC2=NCC(O)CN2)cc1C(=O)NCC(=O)N[C@@H](CC(=O)O)c1cc(Cl)cc(Cl)c1O (some centres unmarked) has measured pIC50 not below 6. Thanks!
Response given: T

Challenge: Hello, I need to know if Cn1nc(C(=O)NCC(=O)NC(CC(=O)O)c2cc(Cl)cc(Cl)c2O)cc1NC1=NCCN1 (centres unmarked) [Example 24, (trifluoroacetate) salt] has measured pIC50 not below 6. Thanks!
Response given: F

Challenge: Hello, I need to know if O=C(O)CC(NC(=O)CNC(=O)c1cncc(NC2=NCCN2)c1)c1cc(Cl)cc(Cl)c1O (centres unmarked) has measured pIC50 not below 6. Thanks!
Response given: T

Challenge: Hello, I need to know if "CC1(C)CN=C(Nc2cc(C(=O)NCC(=O)N[C@@H](CC(=O)O)c3cc(Cl)cc(Cl)c3O)c[nH]c2=O)NC1" has measured pIC50 not below 6. Thanks!
Response given: F

====

I'd appreciate it if you could supply IC50 values for the items below.
Experimental Target: Human fibrinogen receptor IIb/IIIa (Homo sapiens, UniProt P05106+P08514)
Construct: Human fibrinogen receptor ([…]) was purified from outdated platelets; from tissue; host or cells: outdated human platelets
Assay Info: Purified IIb/IIIa receptor assay: solid phase receptor assay, competition with biotinylated vitronectin
Type: binding
Condition Description: 1 nM biotinylated vitronectin
Structures can show the parent of a compound that is named as a salt.
Write it as a number; the unit nM goes unstated.

Challenge: Could you tell me which IC50 is on file for COc1ncc(N=C2NCCN2)cc1C(=O)NCC(=O)NC(CC(=O)O)c1cc(Cl)cc(Cl)c1O (stereo not drawn) [Example 22, (trifluoroacetate) salt] ?
Response given: 1710

Challenge: Could you tell me which IC50 is on file for O=C(O)C[C@H](NC(=O)CNC(=O)c1cc(NC2=NCC(O)CN2)cs1)c1cc(Cl)cc(Cl)c1O (stereo partly drawn) [Example 12, trifluoroacetate salt] ?
Response given: 442

Challenge: Could you tell me which IC50 is on file for O=C(O)CC(NC(=O)CNC(=O)c1c[nH]c(=O)c(NC2=NCC(O)CN2)c1)c1cc(Br)cc(Br)c1O (stereo not drawn) [Example 29] ?
Response given: 1380
